- Test system: 379773-124-R-J2-PDC complex spheroids, viability % test/control
- EXPERIMENTAL DETAILS: Anticancer human tumor 379773-124-R-J2-PDC patient-derived endometrial carcinoma cell line growth inhibition [CLK]
- EXPERIMENTAL CONTEXT: second compound 0.0316 µM; first compound 0.1 µM; stronger effect = lower value
MEASURED PARAMETER: viability, T/C (%)
Respond numerically; units are % and should not be typed.

# viability, T/C (compound: C#Cc1c(F)ccc2cc(O)cc(-c3ncc4c(N5CC6CCC(C5)N6)nc(OCC56CCCN5CC(F)C6)nc4c3F)c12 (stereo not given) + CNC(=O)c1ccc(Nc2nc(OC3CCCC3)c3c(-c4ccc5nc(C)oc5c4)c[nH]c3n2)c(OC)c1 ) is 65

Data point: COC1C=CCC(C)C(C)S(=O)(=O)NC(=O)c2ccc3c(c2)N(CC2CCC21)CC1(CCCc2cc(Cl)ccc21)CO3 (stereo not given) + CNC(=O)c1ccc(Nc2nc(OC3CCCC3)c3c(-c4ccc5nc(C)oc5c4)c[nH]c3n2)c(OC)c1 ; viability, T/C = 82.8

// viability, T/C lookup, compound = COc1ccc([C@@H](O)c2cc(-c3ncnc4cc(N5CCOCC5)ccc34)c(F)cc2Cl)nn1 + CN1CCN(c2cc(C(=O)Nc3cc4cc(-c5cnn(C)c5)ccc4cn3)ccn2)CC1 , result: 80.7

What the record says about C=CC(=O)N1CCN(c2nc(=O)n(-c3c(C)ccnc3C(C)C)c3nc(-c4c(O)cccc4F)c(F)cc23)C(C)C1 (stereo not given) + CNC(=O)c1ccc(Nc2nc(OC3CCCC3)c3c(-c4ccc5nc(C)oc5c4)c[nH]c3n2)c(OC)c1 : viability, T/C is 80

Kindly note the recorded viability, T/C for CC(CO)NC(=O)c1cc(-c2ccc(Cl)cc2)nn(-c2cnn(C)c2)c1=O (stereo not given) + CN1CCN(c2cc(C(=O)Nc3cc4cc(-c5cnn(C)c5)ccc4cn3)ccn2)CC1 , which is 86.8

###

- System: 379773-124-R-J2-PDC complex spheroids, viability % test/control
- EXPERIMENTAL DETAILS: Anticancer human tumor 379773-124-R-J2-PDC cell line growth inhibition [CLK];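 further: compound exposure lasted seven days before the viability readout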;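 on viability, T/C: 100% = DMSO vehicle control wells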
- EXPERIMENTAL CONTEXT: second compound 0.0316 µM; first compound 3.16 µM; stronger effect = lower value
- From the text: A high-throughput screen of multi-cell type tumor spheroids was designed to identify active combinations of […] and targeted small molecules. Complex spheroids include a stromal component modeled by human endothelial cells (HUVEC) and fibroblasts modeled by human mesenchymal stem cells (MSCs). […] Compounds. […] If the clinical Cmax for an agent had not been determined, the highest concentration tested was 10 microM. […]
Give viability, T/C for every item shown.
Unit % implied. Number only.

// returns viability, T/C for CC(Nc1ccc2c(c1)OCCn1cc(N3C(=O)OCC3C(F)F)nc1-2)C(N)=O (stereo not drawn) + CN1CCN(c2cc(C(=O)Nc3cc4cc(-c5cnn(C)c5)ccc4cn3)ccn2)CC1 with 379773-124-R-J2-PDC complex spheroids, viability % test/control; value = 68.6

Record COC1C=CCC(C)C(C)S(=O)(=O)NC(=O)c2ccc3c(c2)N(CC2CCC21)CC1(CCCc2cc(Cl)ccc21)CO3 (stereo not drawn) + CNC(=O)c1ccc(Nc2nc(OC3CCCC3)c3c(-c4ccc5nc(C)oc5c4)c[nH]c3n2)c(OC)c1 has 379773-124-R-J2-PDC complex spheroids, viability % test/control viability, T/C equal to 90

Given the compound O=c1[nH]cc(F)c(=O)[nH]1 + CN1CCN(c2cc(C(=O)Nc3cc4cc(-c5cnn(C)c5)ccc4cn3)ccn2)CC1 and test system 379773-124-R-J2-PDC complex spheroids, viability % test/control, the measured viability, T/C is 74.5

###

- System: 379773-124-R-J2-PDC complex spheroids, viability % test/control
- EXPERIMENTAL DETAILS: Anticancer human tumor 379773-124-R-J2-PDC cell line growth inhibition [CLK];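 further: compound exposure lasted seven days before the viability readout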;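 on viability, T/C: 100% = DMSO vehicle control wells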
- EXPERIMENTAL CONTEXT: second compound 0.316 µM; first compound 10 µM; stronger effect = lower value
- Excerpt: A high-throughput screen of multi-cell type tumor spheroids was designed to identify active combinations of […] and targeted small molecules. Complex spheroids include a stromal component modeled by human endothelial cells (HUVEC) and fibroblasts modeled by human mesenchymal stem cells (MSCs). […] Compounds. […] If the clinical Cmax for an agent had not been determined, the highest concentration tested was 10 microM. […]
MEASURED PARAMETER: viability, T/C (%)
Numeric only. Scale: %

viability, T/C reading for CCCS(=O)(=O)Nc1ccc(F)c(C(=O)c2c[nH]c3ncc(-c4ccc(Cl)cc4)cc23)c1F + CN1CCN(c2cc(C(=O)Nc3cc4cc(-c5cnn(C)c5)ccc4cn3)ccn2)CC1 : 18.3

The molecule identified as Nc1ccccc1NC(=O)c1ccc(CNC(=O)OCc2cccnc2)cc1 + CN1CCN(c2cc(C(=O)Nc3cc4cc(-c5cnn(C)c5)ccc4cn3)ccn2)CC1 registered its viability, T/C at 0.06

response.value for CC1(C)CCC(CN2CCN(c3ccc(C(=O)NS(=O)(=O)c4ccc(NCC5CCOCC5)c([N+](=O)[O-])c4)c(Oc4cnc5[nH]ccc5c4)c3)CC2)=C(c2ccc(Cl)cc2)C1 + CNC(=O)c1ccc(Nc2nc(OC3CCCC3)c3c(-c4ccc5nc(C)oc5c4)c[nH]c3n2)c(OC)c1 (field: viability, T/C) = 1.34

###

- Test system: 379773-124-R-J2-PDC complex spheroids, viability % test/control
- EXPERIMENTAL DETAILS: Anticancer human tumor 379773-124-R-J2-PDC cell line growth inhibition [CLK];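 further: compound exposure lasted seven days before the viability readout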;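 on viability, T/C: 100% = DMSO vehicle control wells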
- EXPERIMENTAL CONTEXT: second compound 0.0316 µM; first compound 0.1 µM; stronger effect = lower value
MEASURED PARAMETER: viability, T/C (%)
Entry rule: numbers only, all in %.

Short answer for COc1ccc([C@@H](O)c2cc(-c3ncnc4cc(N5CCOCC5)ccc34)c(F)cc2Cl)nn1 + CNC(=O)c1ccc(Nc2nc(OC3CCCC3)c3c(-c4ccc5nc(C)oc5c4)c[nH]c3n2)c(OC)c1 : viability, T/C was 79.9

The recorded viability, T/C for Cn1ncnc1[C@H]1c2n[nH]c(=O)c3cc(F)cc(c23)N[C@@H]1c1ccc(F)cc1 + CNC(=O)c1ccc(Nc2nc(OC3CCCC3)c3c(-c4ccc5nc(C)oc5c4)c[nH]c3n2)c(OC)c1 is 14.7

Reported viability, T/C for O=C(c1cc(Cc2n[nH]c(=O)c3ccccc23)ccc1F)N1CCN(C(=O)C2CC2)CC1 + CNC(=O)c1ccc(Nc2nc(OC3CCCC3)c3c(-c4ccc5nc(C)oc5c4)c[nH]c3n2)c(OC)c1 was 75.1

###

- System: 379773-124-R-J2-PDC complex spheroids, viability % test/control
- EXPERIMENTAL DETAILS: Anticancer human tumor 379773-124-R-J2-PDC cell line growth inhibition [CLK];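 further: compound exposure lasted seven days before the viability readout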
- EXPERIMENTAL CONTEXT: curve of first compound; second compound 0.1 µM
Please provide measured IC50 for the entries that follow.

Given item CC(CO)NC(=O)c1cc(-c2ccc(Cl)cc2)nn(-c2cnn(C)c2)c1=O (stereo not given) + CNC(=O)c1ccc(Nc2nc(OC3CCCC3)c3c(-c4ccc5nc(C)oc5c4)c[nH]c3n2)c(OC)c1 , the value recorded as its IC50 is < 31.6 nM

The compound listed as NC(=O)C(=Cn1cnc(-c2cc(C(F)(F)F)cc(C(F)(F)F)c2)n1)c1cncnc1 + CNC(=O)c1ccc(Nc2nc(OC3CCCC3)c3c(-c4ccc5nc(C)oc5c4)c[nH]c3n2)c(OC)c1 shows IC50 equal to < 9.49 nM

The compound identified as CCc1c2c(nc3ccc(O)cc13)-c1cc3c(c(=O)n1C2)COC(=O)[C@]3(O)CC + CN1CCN(c2cc(C(=O)Nc3cc4cc(-c5cnn(C)c5)ccc4cn3)ccn2)CC1 registered its IC50 at < 3.16 nM

For COc1cccc2c1C(=O)c1c(O)c3c(c(O)c1C2=O)CC(O)(C(=O)CO)CC3OC1CC(N)C(O)C(C)O1 (stereo not given) + CNC(=O)c1ccc(Nc2nc(OC3CCCC3)c3c(-c4ccc5nc(C)oc5c4)c[nH]c3n2)c(OC)c1 the compound record lists IC50 as < 31.6 nM

NC(=O)C(=Cn1cnc(-c2cc(C(F)(F)F)cc(C(F)(F)F)c2)n1)c1cncnc1 + CN1CCN(c2cc(C(=O)Nc3cc4cc(-c5cnn(C)c5)ccc4cn3)ccn2)CC1 yielded IC50 of 47.7 nM

###

- Test system: 379773-124-R-J2-PDC complex spheroids, viability % test/control
- EXPERIMENTAL DETAILS: Anticancer human tumor 379773-124-R-J2-PDC cell line growth inhibition [CLK];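 further: compound exposure lasted seven days before the viability readout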;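 on viability, T/C: 100% = DMSO vehicle control wells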
- EXPERIMENTAL CONTEXT: second compound 10 µM; first compound 0.316 µM; stronger effect = lower value
Threshold 0.7%. viability, T/C below it: rule met. viability, T/C at it or above: rule not met.

Request: Is viability, T/C strictly under 0.7% for the entry CC(CO)NC(=O)c1cc(-c2ccc(Cl)cc2)nn(-c2cnn(C)c2)c1=O (stereo not given) + CN1CCN(c2cc(C(=O)Nc3cc4cc(-c5cnn(C)c5)ccc4cn3)ccn2)CC1 ?
Response: rule met

Request: Please let me know if C#Cc1c(F)ccc2cc(O)cc(-c3ncc4c(N5CC6CCC(C5)N6)nc(OCC56CCCN5CC(F)C6)nc4c3F)c12 (stereo not given) + CN1CCN(c2cc(C(=O)Nc3cc4cc(-c5cnn(C)c5)ccc4cn3)ccn2)CC1 shows viability, T/C below 0.7%.
Response: rule met

Request: Please determine if O=c1[nH]cc(F)c(=O)[nH]1 + CN1CCN(c2cc(C(=O)Nc3cc4cc(-c5cnn(C)c5)ccc4cn3)ccn2)CC1 is below 0.7% in terms of viability, T/C.
Response: rule met

Request: Confirm or reject: viability, T/C of CC(=O)O[C@H]1C(=O)[C@@]2(C)[C@H]([C@H](OC(=O)c3ccccc3)[C@]3(O)C[C@H](OC(=O)[C@H](O)[C@@H](NC(=O)c4ccccc4)c4ccccc4)C(C)=C1C3(C)C)[C@]1(OC(C)=O)CO[C@@H]1C[C@@H]2O + CNC(=O)c1ccc(Nc2nc(OC3CCCC3)c3c(-c4ccc5nc(C)oc5c4)c[nH]c3n2)c(OC)c1 lies strictly below 0.7%
Response: rule not met

Request: Check if viability, T/C falls below 0.7% for CC1(C)CCC(CN2CCN(c3ccc(C(=O)NS(=O)(=O)c4ccc(NCC5CCOCC5)c([N+](=O)[O-])c4)c(Oc4cnc5[nH]ccc5c4)c3)CC2)=C(c2ccc(Cl)cc2)C1 + CN1CCN(c2cc(C(=O)Nc3cc4cc(-c5cnn(C)c5)ccc4cn3)ccn2)CC1 .
Response: rule met

Request: A record lists CC(Nc1ccc2c(c1)OCCn1cc(N3C(=O)OCC3C(F)F)nc1-2)C(N)=O (stereo not given) + CNC(=O)c1ccc(Nc2nc(OC3CCCC3)c3c(-c4ccc5nc(C)oc5c4)c[nH]c3n2)c(OC)c1 . Is its viability, T/C below 0.7%?
Response: rule not met

Request: Input Nc1ccn(C2OC(CO)C(O)C2(F)F)c(=O)n1 (stereo not given) + CN1CCN(c2cc(C(=O)Nc3cc4cc(-c5cnn(C)c5)ccc4cn3)ccn2)CC1 ; condition: viability, T/C strictly below 0.7%. Does it hold?
Response: rule not met

Request: Please determine if C=C(F)C(=O)N1CCN(c2nc(OCC3CCCN3C)nc3c2CCN(c2cccc4cccc(Cl)c24)C3)CC1CC#N (stereo not given) + CNC(=O)c1ccc(Nc2nc(OC3CCCC3)c3c(-c4ccc5nc(C)oc5c4)c[nH]c3n2)c(OC)c1 is below 0.7% in terms of viability, T/C.
Response: rule not met

Request: Please let me know if CC1COCCN1c1cc(C2(S(C)(=N)=O)CC2)nc(-c2ccnc3[nH]ccc23)n1 (stereo not given) + CN1CCN(c2cc(C(=O)Nc3cc4cc(-c5cnn(C)c5)ccc4cn3)ccn2)CC1 shows viability, T/C below 0.7%.
Response: rule not met
